TARGET: Ubiquitin carboxyl-terminal hydrolase 17-like protein 5 (Homo sapiens)
ASSAY_TEXT: inhibitors of human USP17 deubiquitinase (AID 1645855)
TEST_PARAMETERS: purified USP17, Ub-rhodamine cleavage fluorescence, 3 h; at 50 µM
The campaign covered roughly 47,000 compounds. About 3,100 (6.6%) were called active. Rule as the data show it: active = inhibition above about 30%; inactive = the rest. Only a selection was taken, and actives are over-represented in it overall.
Your response should consist of one outcome taken from YES (active), NO (inactive)

O=C(NC1CC1)c1nc(-c2ccc(-n3cccc3)cc2)no1 : YES
CC(C)=CCc1cc(O)ccc1O : NO
Cc1noc(C)c1CC(=O)N1CCN(c2ccccc2F)CC1 : NO
O=C(CN1CCC(c2nc(-c3ccccc3)no2)CC1)Nc1ccccc1 : NO

Challenge: For Cc1ccc(C(=O)N2CCCC(c3nnc(-c4ccccc4)o3)C2)cc1F (stereo unspecified) , which call appears in the assay record?
Response given: NO

Challenge: For COc1cc(C)c(CN2CCc3c(nc4cc(-c5cc(C)on5)[nH]n4c3=O)C2)cc1OC , which call appears in the assay record?
Response given: NO

Challenge: For CC(C)=CCC(O)C1=CC(=O)c2c(O)ccc(O)c2C1=O (stereo unspecified) , which call appears in the assay record?
Response given: YES
